assayed_target: T1, RBFOX1 RRM RbFoxmut (Fox-RRM*) (Homo sapiens, UniProt Q9NWB1 109-208, R118D;E147R;N151S;E152T)
T1 sequence: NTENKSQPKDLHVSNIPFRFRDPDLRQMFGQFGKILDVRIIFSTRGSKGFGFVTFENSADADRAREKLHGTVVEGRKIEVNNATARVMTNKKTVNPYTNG
test_method_notes: EMSA; HiTS-Eq, 1 nM pool, 10 min; buffer printed only for the single-RNA assays: 10 mM Tris pH 7.5, 150 mM NaCl, 3.4 mM EDTA, 0.001% NP-40, 30 C
test_parameters: tags: His6 N-terminal (pET28a); label: 5' 32P
Whole data set: some 16,000 sequences, median “ka relative to ugcaugu” near 0.096, cut for the highest 2% near 0.35. The sample as a whole holds a higher share of the highest values than the screen did.
readout_type: binding signal

binder: CGUUGUG (DNA:RNA) RNA: GGGAGACCGGAAUUCAGAUUGUCCCGUUGUGUUAAAUCCCGUCGUAGCCACCA DNA 1: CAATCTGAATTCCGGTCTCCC DNA 2: TGGTGGCTACGACGGGATT
binding signal: 0.17 KA relative to UGCAUGU

Turning now to a further binder:
(Q) Query (binder): GGAUGUG (DNA:RNA) RNA: GGGAGACCGGAAUUCAGAUUGUCCGGAUGUGUUAAAUCCCGUCGUAGCCACCA DNA 1: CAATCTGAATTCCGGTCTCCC DNA 2: TGGTGGCTACGACGGGATT ; field requested: binding signal
(A) 0.451 KA relative to UGCAUGU
